# ASSAY_SYSTEM: S. mansoni TGR (Schistosoma mansoni)
# Construct: made in house; host or cells: E. coli
# Sequence (Q962Y6 1-598): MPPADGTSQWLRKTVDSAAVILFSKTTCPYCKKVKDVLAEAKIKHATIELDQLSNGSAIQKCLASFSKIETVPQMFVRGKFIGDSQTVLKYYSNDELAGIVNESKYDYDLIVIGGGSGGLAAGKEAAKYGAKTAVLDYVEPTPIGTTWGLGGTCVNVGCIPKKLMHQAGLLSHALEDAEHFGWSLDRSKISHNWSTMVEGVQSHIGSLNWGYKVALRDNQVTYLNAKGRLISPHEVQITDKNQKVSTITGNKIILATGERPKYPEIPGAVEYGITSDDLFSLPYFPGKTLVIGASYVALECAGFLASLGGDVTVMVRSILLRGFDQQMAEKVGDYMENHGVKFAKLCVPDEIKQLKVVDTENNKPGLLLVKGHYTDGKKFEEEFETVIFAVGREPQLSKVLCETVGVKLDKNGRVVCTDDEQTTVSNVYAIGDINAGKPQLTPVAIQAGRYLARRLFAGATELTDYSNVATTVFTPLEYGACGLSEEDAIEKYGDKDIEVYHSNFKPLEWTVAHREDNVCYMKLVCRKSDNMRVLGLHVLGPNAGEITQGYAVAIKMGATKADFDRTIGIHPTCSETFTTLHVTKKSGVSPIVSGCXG
# PROTOCOL: biochemical
# APPLIED_CONDITIONS: 40 nM enzyme, 3 mM DTNB; after 10 min preincubation; read-out: IC50 S. mansoni TGR, substrate DTNB (original data)
VALUE_TYPE: IC50 (µM)
The answer is to be given in µM; state only the numeric part.

Exercise: Fill in the blank: the reported IC50 of CC(=O)OCC1OC([S][Au][PH]2(c3ccccc3)C(c3ccccn3)=CC=C2c2ccccn2)C(OC(C)=O)C(OC(C)=O)C1OC(C)=O (stereo not shown) is ____.
Key: 0.0125

---

# ASSAY_SYSTEM: B. pahangi TrxR
# PROTOCOL: B. pahangi TrxR enzyme assay, DTNB reduction (original data)
# Type: biochemical, Brugia pahangi
# APPLIED_CONDITIONS: 20 nM enzyme, 3 mM DTNB; after 15 min preincubation; read-out: IC50 B. pahangi TrxR, substrate DTNB (original data)
# Description: Enzymes were prepared in E. coli as described. Assays were performed at 25 °C in 0.1 M potassium phosphate (pH 7.4), 10 mM EDTA using 100 μM NADPH and 3 mM dithiobis(2-nitrobenzoic acid) (DTNB). […] The increase in A412 during the first 3 min was recorded upon DTNB addition. The reaction was done in triplicate.
VALUE_TYPE: IC50 (pM)
The answer is to be given in pM; state only the numeric part.

Exercise: Fill in the blank: the reported IC50 of CC(=O)OC[C@H]1O[C@@H]([S-])[C@H](OC(C)=O)[C@@H](OC(C)=O)[C@@H]1OC(C)=O.CCP(CC)CC.[Au+] [Auranofin] is ____.
Key: 500

---

# Test system: RAW 264.7 macrophages
# PROTOCOL: Cytotoxicity on RAW 264.7 macrophages
# Format: cell-based, murine
# APPLIED_CONDITIONS: 48 h incubation; 2880 min; read-out: Cytotoxicity on RAW 264.7 Macrophages CC50 (µM) ± SD
VALUE_TYPE: CC50

Exercise: Param readout= CC50; system= RAW 264.7 macrophages; entry= CC[P](CC)(CC)=[Au][S][C@@H]1O[C@H](COC(C)=O)[C@@H](OC(C)=O)[C@H](OC(C)=O)[C@H]1OC(C)=O [Auranofin] ; returns value.
Key: 4.43 µM

---

# Tested on: RAW 264.7 macrophages
# PROTOCOL: Cytotoxicity on RAW 264.7 macrophages
# Type: cell-based, murine
# APPLIED_CONDITIONS: 48 h incubation; read-out: Cytotoxicity on RAW 264.7 Macrophages CC50 (µM) ± SD
VALUE_TYPE: CC50 (µM)
The answer is to be given in µM; state only the numeric part.

Exercise: Fill in the blank: the reported CC50 of CC(=O)OCC1OC([S][Au][PH]2(c3ccccc3)C(c3ccccn3)=CC=C2c2ccccn2)C(OC(C)=O)C(OC(C)=O)C1OC(C)=O (stereo not shown) is ____.
Key: 4.35

---

# Test system: human fetal lung fibroblast (MRC-5)
# PROTOCOL: in vitro
VALUE_TYPE: CC50
Value and unit, in that order.

Exercise: Fill in the blank: the reported CC50 of CC(=O)OCC1OC([S][Au][PH]2(c3ccccc3)C(c3ccccn3)=CC=C2c2ccccn2)C(OC(C)=O)C(OC(C)=O)C1OC(C)=O (stereo not shown) is ____.
Key: 0.59 µM

---

# PROTOCOL: Cytotoxicity on human fetal lung fibroblast MRC-5
# APPLIED_CONDITIONS: human, mrc-5 cells
VALUE_TYPE: CC50 at 72 h (nM)
The answer is to be given in nM; state only the numeric part.

Exercise: Fill in the blank: the reported CC50 at 72 h of `CC[P](CC)(CC)=[Au][S][C@@H]1O[C@H](COC(C)=O)[C@@H](OC(C)=O)[C@H](OC(C)=O)[C@H]1OC(C)=O` is ____.
Key: 520

---

# PROTOCOL: in vitro
# APPLIED_CONDITIONS: mouse
VALUE_TYPE: CC50 at 3 days (µM)
The answer is to be given in µM; state only the numeric part.

Exercise: Fill in the blank: the reported CC50 at 3 days of CCCCCCCCCCCCCCCCOP(=O)([O-])OCC[N+](C)(C)C [Miltefosine] is ____.
Key: 20

---

# System: Acanthamoeba castellanii ATCC 30010
# PROTOCOL: Anti-acanthamoebal activity on A. castellanii trophozoites (resazurin)
# Type: cell-based
# APPLIED_CONDITIONS: ATCC30010, 72 h, read-out: Acanthamoeba castellanii ATCC 30010 IC50 (µM) ± SD
Each item that follows carries a reported IC50.
The answer is to be given in µM; state only the numeric part.

CCCCCCCCCCCCCCCCOP(=O)([O-])OCC[N+](C)(C)C = 9.21

Here is another compound to look at.
Exercise: Fill in the blank: the reported IC50 of `N=C(N)c1ccc(OCCCCCOc2ccc(C(=N)N)cc2)cc1` is ____.
Key: 1.39

---

Each item that follows carries a reported CC50 at 48 h.
# PROTOCOL: Cytotoxicity on RAW 264.7 macrophages
# Assay type: cell-based, murine
# APPLIED_CONDITIONS: mouse, RAW 264.7 macrophages; 48 h incubation; read-out: Cytotoxicity on RAW 264.7 Macrophages CC50 (µM) ± SD

N=C(N)c1ccc(OCCCCCOc2ccc(C(=N)N)cc2)cc1 = > 25 µM

Here is another molecule to look at.
Exercise: Fill in the blank: the reported CC50 at 48 h of `CCCCCCCCCCCCCCCCOP(=O)([O-])OCC[N+](C)(C)C` is ____.
Key: > 25 µM

---

# PROTOCOL: Cytotoxicity on RAW 264.7 macrophages
# Format: cell-based, murine
# APPLIED_CONDITIONS: mouse, raw 264.7 macrophages, 48 h incubation; read-out: Cytotoxicity on RAW 264.7 Macrophages CC50 (µM) ± SD
VALUE_TYPE: CC50 at 48 h

Exercise: Fill in the blank: the reported CC50 at 48 h of CC[P](CC)(CC)=[Au][S][C@@H]1O[C@H](COC(C)=O)[C@@H](OC(C)=O)[C@H](OC(C)=O)[C@H]1OC(C)=O [Auranofin] is ____.
Key: ~4 µM

---

# PROTOCOL: Cytotoxicity on primary mouse macrophages (PMM)
# APPLIED_CONDITIONS: mouse, primary macrophages
VALUE_TYPE: CC50 at 72 h (nM)
The answer is to be given in nM; state only the numeric part.

Exercise: Fill in the blank: the reported CC50 at 72 h of `CC[P](CC)(CC)=[Au][S][C@@H]1O[C@H](COC(C)=O)[C@@H](OC(C)=O)[C@H](OC(C)=O)[C@H]1OC(C)=O` is ____.
Key: 2000

---

# Test system: primary mouse macrophages (PMM)
# PROTOCOL: in vitro
# Procedure: Toxicity in human fetal lung fibroblast (MRC-5) cell line and primary mouse macrophages (PMM) was assessed using a previously reported assay in 96-well microtiter plates. Tamoxifen and miltefosine were included as reference drugs (Table 10). For MRC5SV2 or PMM cells, the assays were performed in 96-well microtiter plates, each well containing 10 µL of compound dilution and 190 µL of cell inoculum (3 × 10^4 cells/mL) as reported. […]
VALUE_TYPE: CC50 (µM)
The answer is to be given in µM; state only the numeric part.

Exercise: Param readout= CC50; system= primary mouse macrophages (PMM); entry= CC(=O)OCC1OC([S][Au][PH]2(c3ccccc3)C(c3ccccn3)=CC=C2c2ccccn2)C(OC(C)=O)C(OC(C)=O)C1OC(C)=O (stereo not shown) [GoPI-sugar] ; returns value.
Key: 8

---

# Test system: T. b. gambiense (ITMAP/1893)
# PROTOCOL: Anti-trypanosomal activity, T. b. gambiense trypomastigotes (resazurin)
# Assay type: cell-based, Trypanosoma brucei gambiense
# APPLIED_CONDITIONS: Trypanosoma brucei, GAMBIENSE, 72 h, read-out: T. b. gambiense IC50 (µM) ± SD
VALUE_TYPE: IC50 (µM)
The answer is to be given in µM; state only the numeric part.

Exercise: Fill in the blank: the reported IC50 of `N=C(N)c1ccc(OCCCCCOc2ccc(C(=N)N)cc2)cc1` is ____.
Key: 0.0011
